- System: HS 578T breast
- Experiment description: NCI-60 one-dose screen, 48 h (100 = growth as untreated, 0 = no growth, -100 = all killed)
- Settings: 10 µM unless noted
- Protocol: Growth inhibition of the HS 578T human tumor cell line is measured as a screen for anti-cancer activity. Cells are grown in 96 well plates and exposed to the test compound for 48 hours. Compounds are tested at a single concentration, which is 10^-5 M for most compounds. The reported endpoint is percent growth (GI% or GIPRCNT), where numbers from 0 - 100% represent growth inhibition, and numbers from -100% - 0 represent cell death. For example, a value of 40 represents 60% growth inhibition. […]
This is part of a sample that, as a whole, favours compounds with a hit. Of some 83,000 tested, about 20% had one in any assay.
Metric: growth (%)
Give the number; % is assumed, so skip it.

Known results for molecules:
Given the molecule `O=C(CSc1nc2ccccc2[nH]1)Nc1ccc(-c2nc3ccccc3s2)c(Cl)c1` , write its reported growth.
65.2

Given the molecule O=S1(=O)CCC(N(/N=C/c2ccco2)c2ccccc2)C1 (configuration not stated) , write its reported growth.
94.3

Given the molecule `CCCC(=O)Oc1ccc(/C(=C(\C)c2ccccc2)c2ccc(OCCN(CC)CC)cc2)cc1` , write its reported growth.
42.6

Given the molecule `COc1ccc(OC)c(/C=C2\Oc3cc(OCCCN4CCCC4)ccc3C2=O)c1` , write its reported growth.
80.8

New cases:
Given the molecule CCN(CC)CCC(CNc1c2ccc(Cl)cc2nc2ccc(OC)cc12)c1ccccc1 (configuration not stated) , write its reported growth.
-27.6

Given the molecule O=C(O)C1CCCCN1c1nc(Cl)nc(Cl)n1 (configuration not stated) , write its reported growth.
103

Given the molecule `COc1cccc(-c2cc3c(O)cc(C#N)cc3[nH]2)c1` , write its reported growth.
43.6
